Target: human ALK5 (Homo sapiens, UniProt P36897)
Construct: human ALK5 (recombinant TGF β1 N-term GST-tagged, 80-end); GST (N)
Sequence (P36897 80-503 limits assumed): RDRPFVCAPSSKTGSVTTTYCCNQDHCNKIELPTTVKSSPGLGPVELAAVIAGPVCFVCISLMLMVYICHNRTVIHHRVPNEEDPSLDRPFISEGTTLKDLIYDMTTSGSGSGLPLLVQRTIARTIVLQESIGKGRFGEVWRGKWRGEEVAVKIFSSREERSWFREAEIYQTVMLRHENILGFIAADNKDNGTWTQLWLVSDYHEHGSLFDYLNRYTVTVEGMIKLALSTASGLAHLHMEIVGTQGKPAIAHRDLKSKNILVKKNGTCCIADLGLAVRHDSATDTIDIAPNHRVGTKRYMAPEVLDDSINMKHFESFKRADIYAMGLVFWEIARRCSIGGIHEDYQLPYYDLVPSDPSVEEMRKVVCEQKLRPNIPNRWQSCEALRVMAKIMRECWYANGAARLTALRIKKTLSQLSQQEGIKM
Test: ADP-GLO Kinases assay of ALK5 enzymatic activity
Settings: purified recombinant human ALK5, TGFβ1 peptide substrate, pIC50 converted to pKi by Cheng-Prusoff, high ATP protocol (15 μM) for very potent compounds, 25° C.
pKi: −log10 of the molar value.
In this section, each of the compounds is paired with its reported pKi.

Here are 3 compounds together with their reported answers.
INSERT INTO results (compound, system_name, measured_metric, val) VALUES
  ('CN1CCN(CCC(=O)Nc2cc(Nc3cc(-c4cc(Cl)ccc4F)nnc3S(C)(=N)=O)ccn2)CC1 (stereo not shown)', 'human ALK5 (Homo sapiens, UniProt P36897)', 'pKi', '8.50 to 9.40'),
  ('CC(C)OC(=O)C1CN(c2nnc(-c3cc(Cl)ccc3F)cc2Nc2ccnc(NC(=O)CCN3CCN(C)CC3)c2)C1', 'human ALK5 (Homo sapiens, UniProt P36897)', 'pKi', '9.50 to 9.90'),
  ('CN1CCN(CCCC(=O)Nc2cc(Nc3cc(-c4cc(Cl)ccc4F)nnc3SCCO)ccn2)CC1', 'human ALK5 (Homo sapiens, UniProt P36897)', 'pKi', '9.50 to 9.90');

// switching to the query compound
Given the entry CN1CCN(CCC(=O)Nc2cc(Nc3cc(-c4cc(Cl)ccc4F)nnc3OCCO)ccn2)CC1 , what pKi was observed with human ALK5 (Homo sapiens, UniProt P36897)? ≥ 10.00
